- Test system: MCF-7 hormone receptor positive breast cancer cells
- METHOD: Resazurin cytotoxicity assay, MCF-7
- Format: cell-based
- PROTOCOL CONDITIONS: Homo sapiens, MCF7; MCF-7 cells, 96 hours treatment, resazurin; read-out: MCF-7 IC50 (μM) ± SD
PROPERTY LABEL: IC50 (µM)
Please reply with the bare figure in µM and do not write the unit itself.

For the molecule shown here, `C=C1CC[C@@H]2C(=C)CC[C@H]3[C@@H](OC(=O)[C@H]3CN(C)C)[C@H]12` , give the reported IC50. 0.07

Which IC50 is reported for this molecule? C=C1CC[C@H]2C(=C)CC[C@H]3C(=C)C(=O)O[C@@H]3[C@@H]12 [DHLC, Dehydrocostus lactone, reference compound] 24.7

What value of measured IC50 is listed for C=C1CC[C@@H]2C(=C)CC[C@H]3[C@@H](OC(=O)[C@H]3CN(CC)CC)[C@H]12 (relative stereo) ? 0.07

Item C=C1CC[C@@H]2C(=C)CC[C@H]3[C@@H](OC(=O)[C@H]3CNCCN)[C@H]12 [DHLC-4, 13-ethylenediamine dehydrocostus lactone] has what recorded IC50? 4.24

Query: IC50; subject: CC[C@@]1(O)C(=O)OCc2c1cc1n(c2=O)Cc2cc3ccccc3nc2-1 [Camptothecin, reference compound] 104
